Assay: Pharmacokinetics in ICR mice after intravenous and intragastric administration
Type: in vivo
Conditions: male, ICR, mouse, plasma, po, 5 mg/kg, ICR mice, PO 5 mg/kg, mean of 3 animals; read-out: Tmax
Experimental: Experimental Example 3 Determination of the Pharmacokinetics of the Mdm2 Inhibitors of the Present Invention in Mice […] The collected plasma was stored at −80° C. before analysis. The plasma sample was analyzed by LC-MS/MS, and the sample was pretreated by protein precipitation method. […] The lowest quantification limit was 1 ng/mL. […]
measured_metric: Tmax (h)

- COc1cc(C2CC2)ncc1-c1nc2c(n1C(C)C)[C@@]1(C(=O)Nc3cc(Cl)ccc31)N(c1cc(Cl)ccc1C)C2=O: 3.33
- CCOc1cc(OC)c(-c2nc3c(n2C(C)C)[C@@]2(C(=O)Nc4cc(Cl)ccc42)N(c2cc(Cl)ccc2F)C3=O)cn1: 2.67
- COc1nc(N(C)C)ncc1-c1nc2c(n1C(C)C)[C@@]1(C(=O)Nc3cc(Cl)ccc31)N(c1cc(Cl)cnc1C)C2=O: 1
- COc1nc(C2CC2)ncc1-c1nc2c(n1C(C)C)[C@@]1(C(=O)Nc3cc(Cl)ccc31)N(c1cc(Cl)ccc1C)C2=O: 3.33
- CCOc1cc(OC)c(-c2nc3c(n2C(C)C)[C@@]2(C(=O)Nc4cc(Cl)ccc42)N(c2cc(Cl)cnc2C)C3=O)cn1: 0.42
- COc1nc(C2CC2)ncc1-c1nc2c(n1C(C)C)[C@@]1(C(=O)Nc3cc(Cl)ccc31)N(c1cc(Cl)cnc1C)C2=O: 1
- COc1nc(OCCF)ncc1-c1nc2c(n1C(C)C)[C@@]1(C(=O)Nc3cc(Cl)ccc31)N(c1cc(Cl)ccc1C)C2=O: 1.67

----------
Assay: Pharmacokinetics in ICR mice after intravenous and intragastric administration
Assay type: in vivo
Details: male, ICR, mouse, plasma, iv, 2 mg/kg, ICR mice, IV 2 mg/kg, mean of 3 animals; read-out: Tmax
Description: Experimental Example 3 Determination of the Pharmacokinetics of the Mdm2 Inhibitors of the Present Invention in Mice […] The collected plasma was stored at −80° C. before analysis. The plasma sample was analyzed by LC-MS/MS, and the sample was pretreated by protein precipitation method. […] The lowest quantification limit was 1 ng/mL. […]
Documented Tmax across a set of compounds
measured_metric: Tmax (min)

* COc1cc(OC(C)C)ncc1-c1nc2c(n1C(C)C)[C@@]1(C(=O)Nc3cc(Cl)ccc31)N(c1cc(Cl)cnc1C)C2=O | 4.98
* COc1nc(C2CC2)ncc1-c1nc2c(n1C(C)C)[C@@]1(C(=O)Nc3cc(Cl)ccc31)N(c1cc(Cl)ccc1C)C2=O | 4.98
* CCOc1cc(OC)c(-c2nc3c(n2C(C)C)[C@@]2(C(=O)Nc4cc(Cl)ccc42)N(c2cc(Cl)ccc2F)C3=O)cn1 | 4.98
* COc1nc(OCCF)ncc1-c1nc2c(n1C(C)C)[C@@]1(C(=O)Nc3cc(Cl)ccc31)N(c1cc(Cl)ccc1C)C2=O | 4.98
* COc1nc(N(C)C)ncc1-c1nc2c(n1C(C)C)[C@@]1(C(=O)Nc3cc(Cl)ccc31)N(c1cc(Cl)cnc1C)C2=O | 4.98
* COc1cc(C(C)C)ccc1-c1nc2c(n1C(C)C)[C@@]1(C(=O)Nc3cc(Cl)ccc31)N(c1cc(Cl)ccc1C)C2=O | 16.7
